- Procedure summary: NCI Yeast Anticancer Drug Screen. Data for the rad50 strain (AID 155);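 note: 0% = growth of vehicle-only cultures of the same strain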
- Experimental conditions: S. cerevisiae rad50 strain growth inhibition; at 50.0 µM
Compounds without any hit were thinned out: in the full panel of roughly 79,000, 15% have a hit. Calls of active or inactive are those of the source. Cut-off read from the data, not from the text of the source: active = growth inhibition above about 70%; inactive = the rest.
Outcomes: TRUE for active, FALSE for inactive

| Compound | Category |
| --- | --- |
| CC1=C[C@H]2O[C@@H]3[C@H](O)[C@@H](O)[C@](C)(C2(COC(=O)CCl)CC1)[C@@]31CO1 (stereo not given in full) | TRUE |
| COc1cccc(/C=N/[N-]C(=O)c2ccncc2)c1[O-].[Ni+2].[OH3+] | FALSE |
| CCCC(C)COC(=O)Cc1ccccc1 (stereo not given) | FALSE |
| NC(=O)/C=C/c1ccc([As]=O)cc1 (stereo not given) | TRUE |
| CC(C)=NNC1=NC(CC(C)C)P(=O)(NCCCCNP2(=O)SC(NN=C(C)C)=NC2CC(C)C)S1 (stereo not given) | FALSE |
| CN(C)c1ccc(/C=C/[N+](=O)[O-])cc1 | FALSE |
| COC1CC(OC2OC(CO)C(O)C(O)C2O)/C(=C\C#N)C(O)C1OC (stereo not given) | FALSE |
| N#Cc1ccc(NN=O)cc1 | FALSE |
| CC[n+]1c(-c2ccccc2)c2cc(N)ccc2c2ccc(N)cc21 (tested in a mixture with another compound) | TRUE |
| CC(=O)Nc1ccc(C(=O)O)cc1 (tested in a mixture with another compound) | FALSE |

* * *

- Procedure summary: NCI Yeast Anticancer Drug Screen. Data for the cln2 rad14 strain (AID 165);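 note: 0% = growth equal to vehicle treated cultures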
- Experimental conditions: S. cerevisiae cln2 rad14 strain, at 50.0 µM
Compounds without any hit were thinned out: in the full panel of roughly 79,000, 15% have a hit. The source made the active and inactive calls. No stated cut-off is given here; in the data, active means growth inhibition above about 70%; inactive means the rest.
Outcomes: yes for active, no for inactive

| Compound | Category |
| --- | --- |
| O=C(N/N=C(/CCN1CCCC1)CC(c1ccccc1)c1c(O)c2ccccc2oc1=O)c1ccncc1 (centres undefined) | yes |
| ClCCCCCCCCCCCl | no |
| NCCCN1CCN(CCCN2CC2)CC1 | yes |
| O=P(c1ccccc1)(c1ccccc1)c1ccccc1.O=P(c1ccccc1)(c1ccccc1)c1ccccc1.O=P(c1ccccc1)(c1ccccc1)c1ccccc1.O=P(c1ccccc1)(c1ccccc1)c1ccccc1.[Co+2].[O-][Cl+3]([O-])([O-])O | no |

* * *

- Procedure summary: NCI Yeast Anticancer Drug Screen. Data for the mec2-1 strain (AID 157)
- Experimental conditions: S. cerevisiae mec2-1 strain, at 50.0 µM
Compounds without any hit were thinned out: in the full panel of roughly 79,000, 15% have a hit. Active and inactive are the calls of the source. Rule as the data show it: active = growth inhibition above about 70%; inactive = the rest.
Outcomes: label 1 = active, label 0 = inactive

| Compound | Category |
| --- | --- |
| Nc1c([N+](=O)[O-])cc(Cl)cc1[N+](=O)[O-] | label 0 |
| CC(=O)SCCC(NC(=S)Nc1ccccc1)P(=O)(Oc1ccccc1)Oc1ccccc1 (centres undefined) | label 0 |
| CC1C/C(=C\N=[N+]=[N-])C(=O)O1 (centres undefined) | label 0 |
| CC(C)C1CN1CC(O)Cn1ccnc1[N+](=O)[O-] (centres undefined) | label 0 |
| COCCCNP(=O)(OC(C)C)OC(C)C | label 0 |
| COc1ccc(C2=CC3=CCC4C(CCC5(C)C(O)CCC45)C3(C)CC2)s1 (centres undefined) | label 0 |
| IC(I)=C(I)I | label 1 |
| [C-]#[O+].[C-]#[O+].[C-]#[O+].[C-]#[O+].[C-]#[O+].[Mo+2].[Mo+4].[c-]1[c-][c-][cH-][c-]1.[c-]1[c-][c-][cH-][c-]1.c1ccc([PH+](CC[PH+](c2ccccc2)c2ccccc2)c2ccccc2)cc1 | label 1 |
| NC(CCCCCP(=O)(O)O)C(=O)O (centres undefined) | label 0 |

* * *

- Procedure summary: NCI Yeast Anticancer Drug Screen. Data for the mec2-1 strain (AID 157)
- Experimental conditions: S. cerevisiae mec2-1 strain, at 50.0 µM, active compounds read high
About 79,000 compounds went through this panel and 15% of them were active in at least one assay; those are over-represented in the sample as a whole.
Listed here: items and their measured growth inhibition.
Readout kind: growth inhibition (%)

| Compound | Quantitative result |
| --- | --- |
| CC1([N+](=O)[O-])COP(=O)(NCC2CCCO2)OC1 (stereo not drawn) | -23.9 |
| O=C1CCC(=O)N1SC(Cl)(Cl)Cl | 99.7 |
| N=C(N)N1CCNc2ccccc2C1 | -10.2 |

* * *

Listed here: items and their measured growth inhibition.
- Procedure summary: NCI Yeast Anticancer Drug Screen. Data for the sgs1 mgt1 strain (AID 161);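 note: 0% = growth of cultures given vehicle only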
- Experimental conditions: S. cerevisiae sgs1 mgt1 strain, at 50.0 µM (retest, dose inferred, filed as 5.0), active compounds read high
About 79,000 compounds went through this panel and 15% of them were active in at least one assay; those are over-represented in the sample as a whole.
Readout kind: growth inhibition (%)

| Molecule | Readout kind | Quantitative result |
| --- | --- | --- |
| CC(c1ccccc1)N1O[C@]12CC[C@@]1(C)C(CCCC13OCCO3)C2 (stereo not given in full) | growth inhibition | 97 |
| Nc1ccc([As]=[As]c2ccc(N)cc2)cc1 (stereo not given) | growth inhibition | 68 |
| Cc1ccc2c(c1)N(CCN(CCCl)CCCl)c1c(ccc3ccccc13)S2 | growth inhibition | 84 |
| CC(=O)[CH-]C(C)=O.CC(=O)[CH-]C(C)=O.[O-]c1ccccc1.[O-]c1ccccc1.[Ti+4] | growth inhibition | 19 |
| Oc1c(Cl)cc(Cl)c2ccccc12.[Cu+2] | growth inhibition | 91 |
| Nc1nc(N)c(-c2ccc(Cl)c(Cl)c2)c(COc2ccc(CNC(=O)Nc3cccc(S(=O)(=O)F)c3)cc2Cl)n1 | growth inhibition | 6 |
| OC(c1ccccc1)(c1ccccc1)c1ccccn1 | growth inhibition | 5 |
| CC(=O)OC1CC[C@@]2(C)C(=CC[C@@H]3[C@@H]2CC[C@]2(C)C(OC(C)=O)[C@H](n4ccnc4)C[C@@H]32)C1 (stereo not given in full) | growth inhibition | 78 |
| COC(CNS(=O)(=O)c1ccccc1)[CH2][Hg][O]C(C)=O (stereo not given) | growth inhibition | 19 |
| CCOC(=O)C1C(O)=C(P(=O)(C2=C(O)C(C(=O)OCC)C(c3ccc(OC(C)=O)cc3)C(C(=O)O)C2=O)N(CCCl)CCCl)C(=O)C(C(=O)O)C1c1ccc(OC(C)=O)cc1 (stereo not given) | growth inhibition | 95 |
| O=C1C(C(Nc2ccccc2)c2ccccc2)=C([O-])c2ccccc21.O=C1C(C(Nc2ccccc2)c2ccccc2)=C([O-])c2ccccc21.[Ni+2] (stereo not given) | growth inhibition | 80 |
| COC1CC(C)C(OC)C2=CC(=O)C=C(NC(=O)/C(C)=C/C=C\C(C)C(OC(N)=O)/C(C)=C\C(C)C1OC)C2=O (stereo not given) | growth inhibition | 99 |
| NC(=O)Nc1ccc([As](Sc2ccccc2C(=O)O)Sc2ccccc2C(=O)O)cc1 | growth inhibition | 10 |
| CCCCCCCCCCC(=O)O.[Pb] | growth inhibition | 9 |
| ClC1CCCCC1[Se](Cl)(Cl)C1CCCCC1Cl (stereo not given) | growth inhibition | 99 |

* * *

- Procedure summary: NCI Yeast Anticancer Drug Screen. Data for the mec2-1 strain (AID 157)
- Experimental conditions: S. cerevisiae mec2-1 strain, at 50.0 µM, active compounds read high
The panel holds about 79,000 compounds, 15% with a hit somewhere; the sample as a whole holds those more often.

| Compound | Unit tag | growth inhibition |
| --- | --- | --- |
| COCC(C#N)NC1CC(OC2CC(O)(C(=O)CO)Cc3c(O)c4c(c(O)c32)C(=O)c2c(OC)cccc2C4=O)OC(C)C1O (stereo not given) | % | 89 |
| CN1CCC2CCCCN2CC1=O (stereo not given) | % | 0.45 |
| COC12c3c(C)cc(O)c4c(=O)occ(c34)C(=O)C1C13COC(=O)c4c(O)cc(C)c(c41)C(=O)C2C3OC(C)=O (stereo not given) | % | 93 |
| O=[N+]([O-])C1CC/C(=N/O)c2nonc21 (stereo not given) | % | 9.5 |
| CC(C)(C)C[C](C)(c1ccccc1)[Sn]([CH3])([CH3])[CH3] (stereo not given) | % | 4.9 |
| CCCC(Br)C(=O)OCC (stereo not given) | % | 4.35 |
| O=P1(CCBr)NCCCO1 (stereo not given) | % | 14.6 |
| NC1=NC(=O)N2CC12 (stereo not given) | % | -9.3 |
| CC(=O)C(C(C)=O)C(C)=O.CC(=O)C(C(C)=O)C(C)=O.CC(=O)C(C(C)=O)C(C)=O.[Cr] | % | 2.8 |
| CSCCC(N)P(C)(=O)O (stereo not given) | % | -37.5 |
